experiment: inhibitors of TNFa-induced VCAM1 expression, primary screen, imaging, HUVEC, TNFa stimulus, immunofluorescence (AID 802); details: HUVEC TNFa-induced VCAM-1 immunofluorescence, high-content imaging; at 2 µM
In all, about 95,000 compounds went through this assay and about 460 (0.48%) were called active.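 The calls were made as follows: active = inhibition above the batch mean plus 3 SD, with images confirmed as a hit by eye (cut at about 37% in these data); inconclusive = inhibition above that limit but hit not confirmed in images; inactive = inhibition not above that limit.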 The list comes from a sample in which actives are over-represented; it also holds close analogues and randomly drawn compounds.
Bench note: report the call from active, inactive

State the result this test recorded for C=CCn1c(SCC(=O)c2ccc(Br)cc2)nnc1C(C)NC(=O)Cc1ccc(OC)cc1 (stereo not given) .
inactive

State the result this test recorded for `CC(C)CNC(=S)NNC(=O)c1nn(C)cc1Cl` .
inactive

State the result this test recorded for `CCNC(=O)c1sccc1-n1cccc1` .
inactive

State the result this test recorded for `Cc1cc(C)c2cc(CN(Cc3nnnn3Cc3ccc(F)cc3)C3CCCC3)c(=O)[nH]c2c1` .
inactive

State the result this test recorded for `CCCNC(=O)NCc1ccc(N2CCCC2=O)cc1` .
inactive

State the result this test recorded for `O=C(Cc1ccc(-n2c(=O)[nH]c3ccccc3c2=O)cc1)N1CCN(c2cccc(Cl)c2)CC1` .
inactive

State the result this test recorded for CCN(CC)CCN1C(=O)C(=O)/C(=C(/O)c2cnn(-c3ccccc3)c2C)C1c1cccs1 (stereo not given) .
inactive

Reference source: PubChem BioAssay AID802
